system: LOX IMVI; assay: NCI tumour cell line growth inhibition, 48 h
Calls of active or inactive are those of the source. Cut-off read from the data, not from the text of the source: active = GI50 up to about 1.1 µM and inactive = higher.
# key: entry, value: GI50
Parameter measured: GI50

- CC1(CCCO)CCCCCC(C)(CCCO)C1=O (stereo not given): > 100 µM (inactive)
- O=C1CSC(c2ccccc2[N+](=O)[O-])N1c1ccc(-n2c(-c3ccccc3)nc3ccccc3c2=O)cc1 (stereo not given): 28.6 µM (inactive)
- OCCC1(O)CCC(O)CC1 (stereo not given): > 100 µM (inactive)
- O=C(O)CCc1nc2c(n1-c1ccccc1)C(=O)c1ccccc1C2=O: 70.5 µM (inactive)
- Nc1ccc(C(=O)N/C(=C\C=C\c2ccco2)c2nc3c4c(ccc3[nH]2)C(=O)c2ccccc2C4=O)cc1: 25.5 µM (inactive)
- CCOC(=O)/C=C/C(Br)=C(Br)/C=C/C(=O)OCC: 2.52 µM (inactive)
- O=[N+]([O-])c1cc(Cl)ccc1S(=O)(=O)N1CCCc2cc(Cl)ccc21: 34.8 µM (inactive)
- c1cc2[se][se]c3c4cccc5[se][se]c(c(c1)c23)c54: > 100 µM (inactive)
- CCOC(=O)C(OP(=O)(OCC)OCC)C(F)(F)F (stereo not given): > 100 µM (inactive)
- O=c1c2ccccc2nc(-c2ccccc2)n1NC(=S)Nc1ccc(Cl)cc1[N+](=O)[O-]: 56.8 µM (inactive)
